molecular target: E153A Orco (Drosophila melanogaster); test: Two-electrode voltage-clamp, E153A mutant Orco; conditions: E153A Orco homomers, TEVC, Xenopus oocytes, −80 mV
Sequence (Q9VNB5 whole entry, stated change not applied): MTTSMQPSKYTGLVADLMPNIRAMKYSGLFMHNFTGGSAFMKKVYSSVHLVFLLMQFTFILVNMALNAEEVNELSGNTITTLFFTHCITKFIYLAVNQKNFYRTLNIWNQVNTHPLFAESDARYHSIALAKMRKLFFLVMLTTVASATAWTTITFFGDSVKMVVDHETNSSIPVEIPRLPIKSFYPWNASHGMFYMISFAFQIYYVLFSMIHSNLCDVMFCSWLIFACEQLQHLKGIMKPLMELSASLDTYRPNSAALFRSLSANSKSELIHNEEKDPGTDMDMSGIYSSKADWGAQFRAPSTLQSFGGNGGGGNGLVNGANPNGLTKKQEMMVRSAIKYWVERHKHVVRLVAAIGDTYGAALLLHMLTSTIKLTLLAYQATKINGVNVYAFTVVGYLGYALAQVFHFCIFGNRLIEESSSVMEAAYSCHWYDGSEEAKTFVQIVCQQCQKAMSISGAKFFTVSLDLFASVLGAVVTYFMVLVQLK
Reported property: EC50

[in] Given CC(=O)OCCc1ccccc1 [PA, phenethyl acetate] , report its EC50 on E153A Orco (Drosophila melanogaster).
[out] 12.8 µM

====

target: Or35a/Orco (Drosophila melanogaster, UniProt Q9V3Q2+Q9VNB5); assay: Two-electrode voltage-clamp in Xenopus laevis oocytes expressing Or35a/Orco; conditions: TEVC, Xenopus oocytes, holding potential −80 mV, mean ± SEM; read-out: half-maximal effective concentration (EC50)
Sequence (Q9V3Q2 whole entry, one chain of several): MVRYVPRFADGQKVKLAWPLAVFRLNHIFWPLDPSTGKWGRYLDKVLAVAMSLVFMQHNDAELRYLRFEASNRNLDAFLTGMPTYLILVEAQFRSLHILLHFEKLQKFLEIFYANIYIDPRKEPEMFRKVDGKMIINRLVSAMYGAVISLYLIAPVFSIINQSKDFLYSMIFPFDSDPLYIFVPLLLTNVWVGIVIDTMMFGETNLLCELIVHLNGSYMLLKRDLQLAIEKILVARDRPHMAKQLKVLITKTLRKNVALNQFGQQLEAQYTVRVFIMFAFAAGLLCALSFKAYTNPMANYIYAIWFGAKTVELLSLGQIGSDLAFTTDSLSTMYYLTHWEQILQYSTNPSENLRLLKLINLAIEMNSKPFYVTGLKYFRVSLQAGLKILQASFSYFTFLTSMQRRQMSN
Reported property: EC50

[in] Given CC(=O)OCCc1ccccc1 [PA, phenethyl acetate] , report its EC50 on Or35a/Orco (Drosophila melanogaster, UniProt Q9V3Q2+Q9VNB5).
[out] 5.9 µM
